molecular target: 5-HT1A receptor (Sus scrofa, UniProt A0A4X1UTF5); construct: membrane preparations from porcine cortical material; from tissue; host or cells: porcine cerebral cortex membranes; test: radioligand binding, porcine cortical membranes, [^3H]8-OH-DPAT and [^3H]WAY 100635; conditions: ether alkylene linker compounds
Sequence (A0A4X1UTF5 1-422): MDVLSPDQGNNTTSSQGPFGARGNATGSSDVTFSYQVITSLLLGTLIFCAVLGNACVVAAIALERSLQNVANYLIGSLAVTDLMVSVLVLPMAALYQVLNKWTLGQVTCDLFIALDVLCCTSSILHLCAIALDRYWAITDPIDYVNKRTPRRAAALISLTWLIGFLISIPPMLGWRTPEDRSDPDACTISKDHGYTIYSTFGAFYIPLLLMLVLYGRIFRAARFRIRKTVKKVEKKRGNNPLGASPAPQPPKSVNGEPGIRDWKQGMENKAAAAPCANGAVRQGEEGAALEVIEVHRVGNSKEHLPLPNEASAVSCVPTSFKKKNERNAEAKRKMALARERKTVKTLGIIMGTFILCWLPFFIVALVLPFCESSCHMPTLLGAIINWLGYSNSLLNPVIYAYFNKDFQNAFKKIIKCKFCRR
Listed here are compounds together with their documented pKi.
Note on units: pKi is unitless, being -log10 of a concentration expressed in mol/L.

Qu. What pKi appears in the records for this compound with 5-HT1A receptor (Sus scrofa, UniProt A0A4X1UTF5)? Clc1cccc(N2CCN(CCCCOc3cc4ccccn4n3)CC2)c1Cl [Example E1]
Ans. 7.77

Next, consider the following compound.
Qu. Give the reported pKi for COc1ccccc1N1CCN(CCCCOc2ccn3ncc(Br)c3c2)CC1 [Example E43] (system: 5-HT1A receptor (Sus scrofa, UniProt A0A4X1UTF5)).
Ans. 8.00

---

Biological target: human D4.4 receptor (Homo sapiens, UniProt P21917)
Construct: expressed in transfected cells; host or cells: Chinese hamster ovary (CHO) cells, membranes
Sequence (P21917 1-419): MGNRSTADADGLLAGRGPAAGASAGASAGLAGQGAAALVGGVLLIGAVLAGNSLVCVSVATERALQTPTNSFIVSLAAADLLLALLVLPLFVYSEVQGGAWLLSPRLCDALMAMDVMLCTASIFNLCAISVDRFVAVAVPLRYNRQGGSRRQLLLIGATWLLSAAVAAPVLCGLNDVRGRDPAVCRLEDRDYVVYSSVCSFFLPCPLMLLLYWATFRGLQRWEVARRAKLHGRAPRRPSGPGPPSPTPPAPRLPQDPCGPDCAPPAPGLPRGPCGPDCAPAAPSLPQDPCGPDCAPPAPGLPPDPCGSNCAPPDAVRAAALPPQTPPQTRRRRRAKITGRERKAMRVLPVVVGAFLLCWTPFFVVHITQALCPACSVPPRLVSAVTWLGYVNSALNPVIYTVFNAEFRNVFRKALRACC
Assay: radioligand binding with [^3H]spiperone, D4.4
Details: [^3H]spiperone, CHO membranes, mean of 2 to 4 experiments
Parameter Ki: see the listing below.

Qu. Could you share which Ki value was measured for ON=Cc1cnn2ccc(OCCCCN3CCN(c4ccccc4Cl)CC3)cc12 [Example E32] ?
Ans. < 0.03 µM

Qu. Field request: Ki | item: COc1ccccc1N1CCN(CCCCOc2ccn3ncc(I)c3c2)CC1
Ans. < 0.03 µM

Qu. Which Ki value belongs to COc1ccccc1N1CCN(CCCCOc2ccn3nnnc3c2)CC1 ?
Ans. < 0.03 µM

---
Qu. Param item = O=Cc1cnn2ccc(COCCCN3CCN(c4cccc(Cl)c4Cl)CC3)cc12 ; retrieve measured Ki.
Ans. 0.03 to 0.3 µM

Qu. Look at this compound and give its reported Ki. Oc1ccc(N2CCN(CCCCOc3ccn4nccc4c3)CC2)cc1
Ans. 0.301 to 3 µM

Qu. Entry O=Cc1cnn2ccc(OCCCCN3CCN(c4cccc([N+](=O)[O-])c4)CC3)cc12 has what Ki?
Ans. 0.03 to 0.3 µM

Qu. Which value of Ki has been reported for Clc1cccc(N2CCN(CCCCOc3cccc4ccnn34)CC2)c1Cl in the records?
Ans. 0.03 to 0.3 µM

Qu. Need Ki of O=Cc1cnn2cccc(OCCCCN3CCN(c4cccc(Cl)c4Cl)CC3)c12 , thanks.
Ans. 0.03 to 0.3 µM

Qu. Can you look up the measured Ki of O=Cc1cnn2c(OCCCCN3CCN(c4ccccc4Cl)CC3)cccc12 for me?
Ans. 0.03 to 0.3 µM

Qu. What value of Ki has been recorded for this entry: CC(=O)Nc1cccc(N2CCN(CCCCOc3ccn4ncc(C=O)c4c3)CC2)c1
Ans. 0.301 to 3 µM

Qu. If you can, please state the reported Ki value of Clc1ccccc1N1CCN(CCCCOc2cccn3nccc23)CC1 .
Ans. < 0.03 µM

Qu. Return reported Ki; argument: O=Cc1c(OCCCCN2CCN(c3ccccc3Cl)CC2)nn2ccccc12
Ans. 0.03 to 0.3 µM

---

target: human D2short receptor (Homo sapiens, UniProt P14416); construct: expressed in transfected cells; host or cells: Chinese hamster ovary (CHO) cells, membranes; experiment: radioligand binding with [^3H]spiperone, D2short; conditions: ether alkylene linker compounds; read-out: Ki D2sh
Sequence (P14416 1-414 isoform P14416-2): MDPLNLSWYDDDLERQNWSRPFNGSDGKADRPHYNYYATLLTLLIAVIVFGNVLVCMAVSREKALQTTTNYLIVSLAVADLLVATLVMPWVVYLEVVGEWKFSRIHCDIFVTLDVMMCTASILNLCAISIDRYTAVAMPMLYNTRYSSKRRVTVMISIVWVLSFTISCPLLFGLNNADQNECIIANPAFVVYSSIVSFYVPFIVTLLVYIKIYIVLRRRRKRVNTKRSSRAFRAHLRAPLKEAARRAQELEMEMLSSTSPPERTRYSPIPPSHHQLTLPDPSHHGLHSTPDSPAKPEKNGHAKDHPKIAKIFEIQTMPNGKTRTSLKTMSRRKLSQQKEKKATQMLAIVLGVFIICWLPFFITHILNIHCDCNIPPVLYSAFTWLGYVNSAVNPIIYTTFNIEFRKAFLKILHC
Catalogue of Ki readings, one per entry.
Only the number, expressed in nM, is required.

Qu. Can you share its Ki? I mean this compound: COc1ccccc1N1CCN(CCCCOc2ccn3ncc(Br)c3c2)CC1
Ans. 3.3

Qu. For the compound COc1ccccc1N1CCN(CCCCOc2ccn3ncc(Cl)c3c2)CC1 , what Ki is on record?
Ans. 4.3

Qu. I have this compound here, COc1ccccc1N1CCN(CCCCOc2cc3ccccn3n2)CC1 [Example E2] , and I need its recorded Ki.
Ans. 16

Let us move to another entry and its Ki.
Qu. Could you tell me which Ki is on file for Clc1cccc(N2CCN(CCCCOc3cc4ccccn4n3)CC2)c1Cl [Example E1] ?
Ans. 10

---

molecular target: 5-HT2 receptor (Sus scrofa); construct: membrane preparations from porcine cortical material; from tissue; host or cells: porcine cerebral cortex membranes; experiment: radioligand binding, porcine cortical membranes, [^3H]ketanserin; conditions: ether alkylene linker compounds
Sequence (P50129 whole entry): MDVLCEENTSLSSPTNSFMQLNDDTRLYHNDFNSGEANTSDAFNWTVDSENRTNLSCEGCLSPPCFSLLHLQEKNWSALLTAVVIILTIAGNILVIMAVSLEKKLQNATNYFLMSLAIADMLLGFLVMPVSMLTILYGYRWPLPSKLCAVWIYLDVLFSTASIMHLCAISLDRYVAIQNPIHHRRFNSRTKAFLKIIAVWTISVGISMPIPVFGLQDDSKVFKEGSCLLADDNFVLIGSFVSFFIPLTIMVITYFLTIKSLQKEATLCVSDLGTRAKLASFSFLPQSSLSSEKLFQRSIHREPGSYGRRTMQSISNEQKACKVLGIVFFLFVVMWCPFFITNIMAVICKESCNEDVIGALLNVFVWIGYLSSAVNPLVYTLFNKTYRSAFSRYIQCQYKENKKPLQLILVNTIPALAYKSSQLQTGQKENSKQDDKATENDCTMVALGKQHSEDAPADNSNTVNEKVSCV
Recorded pKi for the following compounds
// scale note: pKi = -log10(conc_M); give the bare number

Qu. Suppose we examine the compound COc1ccccc1N1CCN(CCCCOc2cc3ccccn3n2)CC1 [Example E2] ; what pKi value has been reported?
Ans. 6.04

Qu. Return reported pKi; argument: COc1ccccc1N1CCN(CCCCOc2ccn3ncc(Cl)c3c2)CC1 [Example E46]
Ans. 6.04

Qu. Fill in the blank: the reported pKi of COc1ccccc1N1CCN(CCCCOc2ccn3ncc(Br)c3c2)CC1 [Example E43] is ____.
Ans. 6.06

Kindly review the next compound as well.
Qu. Please report the recorded pKi for Clc1cccc(N2CCN(CCCCOc3cc4ccccn4n3)CC2)c1Cl [Example E1] .
Ans. 6.82

---

target: 5-HT1A receptor (Sus scrofa); construct: membrane preparations from porcine cortical material; from tissue; host or cells: porcine cerebral cortex membranes; experiment: radioligand binding, porcine cortical membranes, [^3H]8-OH-DPAT and [^3H]WAY 100635; settings: porcine cortical membranes
Readout: Ki

Worked examples follow.
Qu. If you can, please state the reported Ki value of Clc1ccccc1N1CCN(CCCCOc2cccc3ccnn23)CC1 [Example E59] .
Ans. 30 to 300 nM

Qu. Given the compound O=Cc1c(OCCCCN2CCN(c3cccc(Cl)c3Cl)CC2)nn2ccccc12 [Example E4] , what is its reported Ki?
Ans. < 30 nM

Qu. Form field: reported Ki of COc1ccc(N2CCN(CCCCOc3ccn4ncc(C=O)c4c3)CC2)cc1 [Example E24]
Ans. 30 to 300 nM

Qu. Please report the recorded Ki for ON=Cc1cnn2ccc(OCCCCN3CCN(c4ccccc4Cl)CC3)cc12 [Example E35] .
Ans. < 30 nM

# context switch: different compound, same Ki
Qu. Sample Clc1ccccc1N1CCN(CCCCOc2ccn3ncc(I)c3c2)CC1 [Example E50] — what was its Ki?
Ans. 30 to 300 nM

---

Below, each entry is listed with its recorded Ki.
Target: human D4.4 receptor (Homo sapiens, UniProt P21917)
Construct: expressed in transfected cells; host or cells: Chinese hamster ovary (CHO) cells, membranes
Sequence (P21917 1-419): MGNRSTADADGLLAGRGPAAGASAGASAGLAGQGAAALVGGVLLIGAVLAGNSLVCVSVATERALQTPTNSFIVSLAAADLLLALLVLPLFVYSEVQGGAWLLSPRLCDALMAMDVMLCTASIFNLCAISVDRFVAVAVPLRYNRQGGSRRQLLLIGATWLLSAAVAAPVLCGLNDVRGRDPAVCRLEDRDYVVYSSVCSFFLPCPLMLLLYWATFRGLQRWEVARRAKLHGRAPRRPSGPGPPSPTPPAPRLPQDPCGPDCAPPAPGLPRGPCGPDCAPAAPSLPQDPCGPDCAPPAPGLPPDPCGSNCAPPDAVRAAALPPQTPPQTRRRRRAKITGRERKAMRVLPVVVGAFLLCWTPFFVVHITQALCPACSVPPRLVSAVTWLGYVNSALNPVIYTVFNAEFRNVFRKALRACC
Test: radioligand binding with [^3H]spiperone, D4.4
Details: [^3H]spiperone, CHO membranes, mean of 2 to 4 experiments

See these solved cases before continuing.
Qu. What Ki value was documented for this molecule, COc1ccccc1N1CCN(CCCCOc2ccn3ncc(CO)c3c2)CC1 [Example E72] ?
Ans. < 30 nM

Qu. What does the record list as Ki for COc1ccccc1N1CCN(CCCCOc2ccn3ncc(C(C)=O)c3c2)CC1 [Example E28] ?
Ans. < 30 nM

Next:
Qu. Given the molecule O=Cc1cnn2cc(OCCCCN3CCN(c4ccccc4Cl)CC3)ccc12 [Example E56] , what is its reported Ki?
Ans. < 30 nM

Qu. // returns reported Ki for input O=Cc1cnn2ccc(OCCCCN3CCN(c4cccc(Cl)c4Cl)CC3)cc12 [Example E21]
Ans. 30 to 300 nM

Qu. Need Ki, item COc1ccccc1N1CCN(CCCCOc2cccn3ncc(C=O)c23)CC1 [Example E11]
Ans. < 30 nM

Qu. What Ki value was documented for this molecule, Clc1cccc(N2CCN(CCCCOc3ccn4nccc4c3)CC2)c1Cl [Example E15] ?
Ans. 30 to 300 nM
